System: HS 578T breast
Test: NCI-60 one-dose screen, 48 h (100 = growth as untreated, 0 = no growth, -100 = all killed)
Settings: 10 µM unless noted
About 83,000 compounds went through this panel and 20% of them were active in at least one assay; those are over-represented in the sample as a whole.
observationType: growth (%)
Please reply with the bare figure in % and do not write the unit itself.

# count of solved cases: 6
| smilesEntry | growth, % |
| --- | --- |
| COc1ccc(-c2cc(/C=C3\C(=O)Nc4ccc(Cl)cc43)[nH]n2)cc1 | 68.6 |
| COc1ccc(C(=O)c2sc3nc(-c4ccccc4OC)ccc3c2N)cc1OC | 55.6 |
| Nc1c(C(=O)Nc2cccc3c2OCCO3)sc2nc3c(cc12)CN(Cc1ccccc1)CC3 | 66 |
| CCOC(=O)c1cnc2ccc(OC)cc2c1Nc1cccc(S(=O)(=O)NC)c1 | 52.3 |
| COc1ccc(CNc2nccnn2)cc1 | 111 |
| O=C1/C(=C/c2ccccc2)CN(CCC(=O)N2C/C(=C\c3ccccc3)C(=O)/C(=C/c3ccccc3)C2)C/C1=C\c1ccccc1 | 58.1 |

**Q:** Please respond with reported growth (system HS 578T breast) for CC/C(=C(\c1ccccc1)c1ccc(OCCNC)cc1)c1ccccc1 .
**A:** -55.6

**Q:** Specify growth for COc1cc(-c2cc(-c3nc4ccc(Cl)cc4[nH]3)[nH]n2)cc(OC)c1OC , system HS 578T breast.
**A:** 84.2

**Q:** Report its growth with HS 578T breast as the test system: COc1ccc(C(=O)COc2ccc(/C=C3\Oc4ccc(Cl)cc4C3=O)cc2)cc1
**A:** 91.8

**Q:** Name the recorded growth of Nc1c(C(=O)Nc2ccccc2)sc2nc3c(cc12)CN(CCc1ccccc1)CC3 , assay system HS 578T breast.
**A:** 89.1

**Q:** Consider the compound COc1ccc(/C=N\NC(=O)c2ccncc2)cc1O tested on HS 578T breast; state its growth.
**A:** 110

====

Tested on: K-562 leukemia
Assay: NCI-60 one-dose screen, 48 h
Conditions: 10 µM unless noted
This is part of a sample that, as a whole, favours compounds with a hit. Of some 83,000 tested, about 20% had one in any assay. Calls of active or inactive are those of the source. Rule for the calls: active = growth percent below 10; inactive = the rest.
Output constraint: value belongs to t (active), f (inactive)

See these solved cases before continuing.
| smilesEntry | classAssignment |
| --- | --- |
| COc1ncc(-c2ccc3ncnc(Nc4cccc(Cl)c4)c3c2)cc1NS(C)(=O)=O | f |
| CCCNc1nc(SC)nc(-c2cccc(N)c2)c1C#N | f |
| CCCCCCNC(=O)Oc1ccc(/C(=C(\C)c2ccccc2)c2ccc(OCCN(CC)CC)cc2)cc1 | t |

Attention now turns to another entry.
**Q:** I would be grateful if you could indicate the recorded call for O=C(O)c1ccccc1Nc1cccc(S(F)(F)(F)(F)F)c1 .
**A:** f

====

System: A498 renal
Test: NCI-60 one-dose screen, 48 h (100 = growth as untreated, 0 = no growth, -100 = all killed)
Conditions: 10 µM unless noted
Compounds without any hit were thinned out: in the full panel of roughly 83,000, 20% have a hit. The source made the active and inactive calls. How the source made its calls: active means growth percent below 10; inactive means the rest.
growth values by entry

// below: answered compounds
| compound | targetOfAssay | recordedValue |
| --- | --- | --- |
| Cn1c2ccccc2c2c3[nH]c(=O)[nH]c(=O)c3c3c4ccccc4n(C)c3c21 | A498 renal | -4.05% (active) |
| CC/C(=C(\c1ccc(O)cc1)c1ccc(OCCN(C)CCN(C)C(=O)CCCCC(=O)c2c(C)[nH]c(/C=C3\N=C(c4ccc[nH]4)C=C3OC)c2C)cc1)c1ccccc1 | A498 renal | 66.5% (inactive) |
| Cc1cc(Nc2nc(N3CCOCC3)nc3ccccc23)n[nH]1 | A498 renal | -13.4% (active) |

Now consider the entry below.
**Q:** Tell me growth reported for NC(=S)N/N=C/c1ccc(OCc2ccccc2)cc1
**A:** 71.5% (inactive)

====

Tested on: MDA-MB-231 breast
Assay: NCI-60 one-dose screen, 48 h
Conditions: 10 µM unless noted
Compounds without any hit were thinned out: in the full panel of roughly 83,000, 20% have a hit. The source made the active and inactive calls. The calls were made as follows: active = growth percent below 10; inactive = the rest.
Field 'call' accepts 1.0 (active), 0.0 (inactive)

| compound | classAssignment |
| --- | --- |
| NC(=S)N/N=C/c1cc(-c2cccc(N)c2)ccn1 | 0.0 |

**Q:** What was the test verdict on CCN(CC)CCCC(C)N/C(=C1\C(=O)NC(=O)\C1=C(/NC(C)CCCN(CC)CC)c1cccc(OC)c1)c1cccc(OC)c1 (centres undefined) ?
**A:** 1.0

**Q:** // param item: C/C(=C(/c1ccc(O)cc1)c1ccc(Cl)cc1)c1ccccc1 ; yields the recorded call
**A:** 1.0

**Q:** How was CCOC(=O)Cc1cnn(C)c1NC(=O)c1ccc(Cl)cc1NC(C)=O classified in this test?
**A:** 0.0

====

Test system: DU-145 prostate
Assay: NCI-60 one-dose screen, 48 h (100 = growth as untreated, 0 = no growth, -100 = all killed)
Details: 10 µM unless noted
This is part of a sample that, as a whole, favours compounds with a hit. Of some 83,000 tested, about 20% had one in any assay.
Short version: growth at least 80% is Satisfied, less is Not satisfied.

| compound | classAssignment |
| --- | --- |
| CC(C)CC(CC1=CCC2CC1C2(C)C)C1=C(O)C(C)(C)C(=O)C(C)(C)C1=O (stereo not drawn) | Not satisfied |
| Nc1c(C(=O)Nc2ccccc2Cl)sc2nc3c(cc12)CCCCCC3 | Not satisfied |
| O=C1/C(=C\c2cn(C(=O)c3ccc(Cl)cc3)c3ccccc23)c2ccccc2N1c1c(Cl)cccc1Cl | Satisfied |
| COc1ccc(/C=N\NC(=O)c2ccncc2)cc1O | Satisfied |
| COc1ccc2nc3cc(Cl)ccc3c(N3CCN(c4nccc(Nc5ccccc5)n4)CC3)c2c1 | Not satisfied |
| COc1cc2c(c(OC)c1OC)-c1ccc(N=NC(N)=S)c(=O)cc1[C@@H](NC(C)=O)CC2 | Not satisfied |
| CC[n+]1ccc2c(c1)C(=O)c1nccc3c1c-2nc1ccccc13 | Not satisfied |
| O=c1c(/C=C/c2ccco2)nnc(SCCN2CCOCC2)n1/N=C/c1ccc([N+](=O)[O-])cc1 | Satisfied |
| COc1c(Cl)cc(Cl)cc1Cl | Satisfied |
| CCOC(=O)C(Cc1cc(I)c(O)c(I)c1)NC(=O)c1ccccc1 (stereo not drawn) | Satisfied |

**Q:** Does growth meet or surpass 80% for COc1cc(C2C(C(=O)c3cccs3)=C(O)C(=O)N2CCN2CCOCC2)cc(OC)c1OC (stereo not drawn) ?
**A:** Satisfied

**Q:** Would you say CCN1CCN(Cc2ccc(NC(=O)Nc3nc4ccc(Oc5ccnc(C(=O)NC)c5)cc4s3)cc2C(F)(F)F)CC1 shows growth at minimum 80%?
**A:** Not satisfied

**Q:** Check this compound for growth at or above 80%: CCN(CC)CCCNc1cc(OC)cc2nc3cc(Cl)ccc3nc12
**A:** Not satisfied

**Q:** Hi team, for Cc1cc(Cl)ccc1Nc1nc(C(F)(F)F)ccc1C(=O)N/N=C/c1ccc(F)cc1 , is the recorded growth at or above 80%?
**A:** Not satisfied

**Q:** Is growth at least 80%? Consider O=C1C[C@H](Sc2nc(-c3ccc(F)cc3)cc(C(F)(F)F)n2)[C@H]2CO[C@@H]1O2
**A:** Satisfied

**Q:** Exam item: decide whether the reported growth for O=C1Nc2ccccc2/C1=C/C(=N/c1nnc(-c2ccc(Cl)cc2)s1)c1ccccc1 is at least 80%.
**A:** Not satisfied

**Q:** Could you tell me if the measured growth of CC1(C)CC(=O)C(c2c(-c3ccccc3)[nH]c3[nH]c(=S)[nH]c(=O)c23)=C(O)C1 reaches 80% or more?
**A:** Satisfied

====

Tested on: SW-620 colon
Assay: NCI-60 one-dose screen, 48 h (100 = growth as untreated, 0 = no growth, -100 = all killed)
Details: 10 µM unless noted
About 83,000 compounds went through this panel and 20% of them were active in at least one assay; those are over-represented in the sample as a whole.
observationType: growth (%)
Hi! Could you send only the number? It should be in %, unit omitted.

# count of solved cases: 4
| compound | growth (%) |
| --- | --- |
| COc1cnc2c(c1)C(=O)c1c-2n(CCCN2CCCC2)c(=O)c2cc([N+](=O)[O-])ccc12 | -19.3 |
| COc1ccc(-c2nc(Nc3cc(C)[nH]n3)c3ccccc3n2)cc1 | 35.4 |
| O=c1c2cccc3c(NC4CCCCC4)ccc(c32)c2nc3ccccc3n12 | 80.1 |
| CCCCCCCCCC(=O)Oc1ccc(/C(=C(/C)Cc2cccc(OC)c2)c2ccc(OCCN(C)C)cc2)cc1 | 104 |

**Q:** Let me know recorded growth for CCCCNc1ccc2c3c1cccc3c(=O)n1c3ccccc3nc21 , thanks.
**A:** 86.4

**Q:** Look up and report measured growth for this entry: COc1ccc2c(c1)C(=O)/C(=C/c1cccc(OCC(=O)Nc3nc4c(s3)CCCC4)c1)O2
**A:** -61.6

**Q:** Complete the entry with growth for NS(=O)(=O)c1ccc(Nc2nc3n[nH]c(Nc4ccccc4)c3c(=O)[nH]2)cc1
**A:** 104

**Q:** Identify the reported growth for the following entry. c1ccc2sc(SCCCn3ccnc3)nc2c1
**A:** 97.4

**Q:** Supply recorded growth for OC(c1cccc(C(F)(F)F)c1)c1cnccc1NC1CCCCCC1 (configuration not stated) here.
**A:** 3.19

**Q:** Specify growth for NC(=S)N/N=C/c1cc(-c2cccc(N)c2)ccn1 and stop.
**A:** 35.6

**Q:** Identify the reported growth for the following entry. CC(C)n1cc2c(N)ncnc2n1
**A:** 110

**Q:** Tell me measured growth for COc1cc(OC)c(/C=C/S(=O)(=O)Cc2cnc(OC)c(N)c2)c(OC)c1 please.
**A:** 22.8
